Entry source: patent US7300946B2

# Test system: tobacco budworm (Heliothis virescens [Fabricius])
# method-summary: surface-treated diet test against the tobacco budworm
# Format: in vivo
# measurement-conditions: tobacco budworm second instar larvae; surface-treated diet; 0.25 millimoles of candidate insecticide on the surface of the diet; five-day exposure; compared to total number of insects infested
Catalogue of Percent Mortality readings, one per entry.
Quote the value and follow it with the unit of measurement.

Examples with their reported Percent Mortality follow.
What measured Percent Mortality goes with CC(C)OC(=O)Nc1ccc(CN2CCC(C(OC(=O)Nc3ccc(Cl)cc3)c3ccc(F)cc3)CC2)cc1 (stereo not shown) ? 100%

What does the record list as Percent Mortality for `CC(=O)Nc1ccc(CN2CCC(=C(c3ccc(C(F)(F)F)cc3)c3ccc(C(F)(F)F)cc3)CC2)cc1` ? 33%

What does the data say about its Percent Mortality? Entry: CCn1nnc(-c2ccc(CN3CCC(C(OC(=O)Nc4cc(F)cc(F)c4)c4ccc(F)c(F)c4)CC3)cc2)n1 (stereo not shown) 100%

Attention now shifts to the item below.
// query Percent Mortality value for entry Cn1nnc(-c2ccc(CN3CCC(C(OC(=O)Nc4ccc(F)cc4)c4ccc(Cl)cc4)CC3)cc2)n1 (stereo not shown) 100%
